Test system: Staphylococcus aureus
RUN DESCRIPTION: Antibacterial activity against Staphylococcus aureus ATCC 25923 after 24 hrs by disc diffusion method
Type: functional
TEST CONDITIONS: ATCC 25923, 24 h
METRIC NAME: MIC (µg/mL)

[[record]]
mol_smiles = "COc1ccc(/C=N/n2c(Cc3ccc(SC)cc3)nn(CN3CCOCC3)c2=S)cc1"
metric_name = "MIC"
result_number = 25

[[record]]
mol_smiles = "CSc1ccc(/C=N/n2c(Cc3ccc(SC)cc3)nn(CN3CCN(C)CC3)c2=S)cc1"
metric_name = "MIC"
result_number = 25

[[record]]
mol_smiles = "CSc1ccc(Cc2nn(CN3CCN(C)CC3)c(=S)n2/N=C/c2ccc(Cl)cc2)cc1"
metric_name = "MIC"
result_number = 12.5

[[record]]
mol_smiles = "CSc1ccc(Cc2nn(CN3CCOCC3)c(=S)n2/N=C/c2ccc(Cl)cc2Cl)cc1"
metric_name = "MIC"
result_number = 12.5

[[record]]
mol_smiles = "CSc1ccc(Cc2nn(CN3CCN(C)CC3)c(=S)n2/N=C/c2ccc(Cl)cc2Cl)cc1"
metric_name = "MIC"
result_number = 12.5

[[record]]
mol_smiles = "CSc1ccc(Cc2nn(CN3CCN(C)CC3)c(=S)n2/N=C/c2ccc(C)cc2)cc1"
metric_name = "MIC"
result_number = 25

[[record]]
mol_smiles = "CSc1ccc(/C=N/n2c(Cc3ccc(SC)cc3)nn(CN3CCOCC3)c2=S)cc1"
metric_name = "MIC"
result_number = 25

[[record]]
mol_smiles = "COc1ccc(/C=N/n2c(Cc3ccc(SC)cc3)nn(CN3CCN(C)CC3)c2=S)cc1"
metric_name = "MIC"
result_number = 25

[[record]]
mol_smiles = "CSc1ccc(Cc2nn(CN3CCOCC3)c(=S)n2/N=C/c2ccc3c(c2)OCO3)cc1"
metric_name = "MIC"
result_number = 25

